test system: Fibroblast; assay: Multiplex assay against human fibroblast; format: toxicity, cell-based; settings: 24 h, 10 µM, compound concentration 10 uM, replicate 1
So I've got a bunch of molecules here, and I need their Population Normal (%) values.
Entry rule: numbers only, all in %.

Just so you know, measured Population Normal (%) for C=CCn1c(=O)c2cnc(Nc3ccc(N4CCN(C)CC4)cc3)nc2n1-c1cccc(C(C)(C)O)n1 came out at 79

Just so you know, measured Population Normal (%) for O=C1NC(=O)C(c2cnc3ccccn23)=C1c1cn2c3c(cc(F)cc13)CN(C(=O)N1CCCCC1)CC2 came out at 88

Just so you know, measured Population Normal (%) for CCc1cccc(CC)c1NC(=O)c1nn(C)c2c1CCc1cnc(Nc3ccc(C(=O)NC4CCN(C)CC4)cc3OC(F)(F)F)nc1-2 came out at 69

Just so you know, measured Population Normal (%) for COCC(=O)NC/C=C/c1ccc2ncnc(Nc3ccc(Oc4ccc(C)nc4)c(C)c3)c2c1 came out at 85

Just so you know, measured Population Normal (%) for CNC(=O)c1ccc(Nc2nc(OC3CCCC3)c3c(-c4ccc5nc(C)oc5c4)c[nH]c3n2)c(OC)c1 came out at 76

Just so you know, measured Population Normal (%) for COc1ccc(S(=O)(=O)N(CCO)c2ccccc2CN(C)C/C=C/c2ccc(Cl)cc2)cc1.O=P(O)(O)O came out at 85

Just so you know, measured Population Normal (%) for Cn1nc(C(F)(F)F)cc1-c1cnc(N2CCc3cc(S(=O)(=O)Nc4c(F)cc(Cl)cc4F)cc(N4CCCC4=O)c32)nc1 came out at 89

Just so you know, measured Population Normal (%) for CCOc1cc(C(=O)N2CCC(N3CCN(C)CC3)CC2)ccc1Nc1ncc2c(n1)N(C1CCCC1)c1ccccc1C(=O)N2C came out at 71

Just so you know, measured Population Normal (%) for Cc1ccc(C(=O)Nc2cccc(C(F)(F)F)c2)cc1Nc1nc(-c2cccnc2)nc2c1cnn2C came out at 89

Just so you know, measured Population Normal (%) for O=C(Nc1ccc(-n2nc(-c3cccnc3)cc2C(F)(F)F)cn1)c1ccc(-c2ccccc2)c(F)c1 came out at 91

Just so you know, measured Population Normal (%) for CCCn1c(=O)c2[nH]c(-c3cnn(Cc4cccc(C(F)(F)F)c4)c3)nc2n(CC)c1=O came out at 73

Just so you know, measured Population Normal (%) for Cc1ccc2nc(NCCN)c3ncc(C)n3c2c1.O=C(O)C(F)(F)F.O=C(O)C(F)(F)F came out at 76

Just so you know, measured Population Normal (%) for COc1ccc(-c2ccc3c(N4CCOCC4)nc(N4C[C@@H](C)O[C@@H](C)C4)nc3n2)cc1CO came out at 41

Just so you know, measured Population Normal (%) for CN1CCC(=C2c3ccccc3CC(=O)c3sccc32)CC1.O=C(O)/C=C/C(=O)O [KETOTIFEN FUMARATE] came out at 83

Just so you know, measured Population Normal (%) for S=C(NCCCc1c[nH]cn1)NCCCN(Cc1ccc(Cl)c(Cl)c1)c1ccc(Br)cn1 came out at 78

Just so you know, measured Population Normal (%) for COc1cccc2cc(-c3nc([C@H]4CC[C@H](C(=O)O)CC4)n4ncnc(N)c34)[nH]c12 came out at 82

Just so you know, measured Population Normal (%) for CCOc1cc2ncc(C#N)c(Nc3ccc(OCc4ccccn4)c(Cl)c3)c2cc1NC(=O)/C=C/CN(C)C came out at 60

Just so you know, measured Population Normal (%) for O=C(Nc1ccc(-c2ccnc(Nc3ccc(N4CCOCC4)cc3)n2)cc1)[C@@H]1CCCN1 came out at 87

Just so you know, measured Population Normal (%) for CCn1cc(-c2ccnc3[nH]c(-c4cccc(CN(C)C)c4)cc23)c(-c2ccc(NC(=O)N(C)C)cc2)n1 came out at 50

Just so you know, measured Population Normal (%) for O=C1N/C(=N/c2ccccc2F)S/C1=C\c1ccc(C(=O)O)cc1 came out at 79

Just so you know, measured Population Normal (%) for CCc1cccc(CC)c1NC(=O)c1nn(C)c2c1CCc1cnc(Nc3ccc(N4CCN(C)CC4)cc3OC)nc1-2 came out at 86

Just so you know, measured Population Normal (%) for Cl.O=c1c2cccn2c2ccccc2n1CCCN1CCC(c2ccc(Cl)cc2)CC1 came out at 60

Just so you know, measured Population Normal (%) for CCCS(=O)(=O)c1nc(NC2CC2)cc(-c2ccc3c(ccn3C3CC(C)(C)NC(C)(C)C3)c2)n1 came out at 80

Where do these numbers come from? They come from ChEMBL document CHEMBL4689842.
